tested on: HOP-92; assay: NCI one-dose SRB assay (Non-Small Cell Lung Cancer); type: cell-based, human; conditions: HOP-92, 1.00E-5 Molar
Reported Growth Percent values are given for each entry in this list.

SMILES_ENTRY: COc1ccc(-c2ccc(NC(=O)Nc3cccc(C(F)(F)F)c3)c(C)n2)cc1OC
Growth Percent (%): 55.33
--
SMILES_ENTRY: COc1ccc(NC(=O)Nc2ccc(-c3ccc(OC)c(OC)c3)nc2C)cc1
Growth Percent (%): 73.37
--
SMILES_ENTRY: COc1ccc(-c2ccc(NC(=O)Nc3ccc(Cl)cc3)c(C)n2)cc1
Growth Percent (%): 81.02
--
SMILES_ENTRY: COc1ccc(-c2ccc(NC(=O)Nc3cccc(Cl)c3)c(C)n2)cc1OC
Growth Percent (%): 60.18
--
SMILES_ENTRY: COc1cccc(NC(=O)Nc2ccc(-c3ccc(OC)c(OC)c3)nc2C)c1
Growth Percent (%): 81.00
--
SMILES_ENTRY: COc1ccc(-c2ccc(NC(=O)Nc3cccc(C(F)(F)F)c3)c(C)n2)cc1
Growth Percent (%): 68.79
--
SMILES_ENTRY: COc1ccc(-c2ccc(NC(=O)Nc3ccc(Cl)c(C(F)(F)F)c3)c(C)n2)cc1
Growth Percent (%): 27.03

====

test system: SNB-19; test: NCI one-dose SRB assay (CNS Cancer); format: cell-based, human; details: SNB-19, 1.00E-5 Molar
ASSAY_READOUT: Growth Percent (%)

SMILES_ENTRY: COc1ccc(-c2ccc(NC(=O)Nc3cccc(C(F)(F)F)c3)c(C)n2)cc1OC
ASSAY_READOUT: Growth Percent
OBSERVED_VALUE: 78.84

SMILES_ENTRY: COc1cccc(NC(=O)Nc2ccc(-c3ccc(OC)c(OC)c3)nc2C)c1
ASSAY_READOUT: Growth Percent
OBSERVED_VALUE: 115.50

SMILES_ENTRY: COc1ccc(-c2ccc(NC(=O)Nc3cccc(C(F)(F)F)c3)c(C)n2)cc1
ASSAY_READOUT: Growth Percent
OBSERVED_VALUE: 67.81

SMILES_ENTRY: COc1ccc(NC(=O)Nc2ccc(-c3ccc(OC)c(OC)c3)nc2C)cc1
ASSAY_READOUT: Growth Percent
OBSERVED_VALUE: 71.47

SMILES_ENTRY: COc1ccc(-c2ccc(NC(=O)Nc3ccc(Cl)cc3)c(C)n2)cc1
ASSAY_READOUT: Growth Percent
OBSERVED_VALUE: 94.20

SMILES_ENTRY: COc1ccc(-c2ccc(NC(=O)Nc3ccc(Cl)c(C(F)(F)F)c3)c(C)n2)cc1
ASSAY_READOUT: Growth Percent
OBSERVED_VALUE: 57.33

SMILES_ENTRY: COc1ccc(-c2ccc(NC(=O)Nc3cccc(Cl)c3)c(C)n2)cc1OC
ASSAY_READOUT: Growth Percent
OBSERVED_VALUE: 97.00

====

Test system: SK-MEL-2
Experiment: NCI one-dose SRB assay (Melanoma)
Format: cell-based, human
Settings: Homo sapiens; SK-MEL-2, 10 μM; read-out: Percentage growth inhibition (GI%)
Protocol: The structures of all the newly prepared pyridine-ureas 8a–n were submitted to the National Cancer Institute (NCI) Developmental Therapeutic Program. Eight compounds 8b, 8d, 8e, 8i, 8j and 8l–n were selected to be examined for their in vitro growth inhibitory activity. The anticancer assays were carried out according to the protocol of the Drug Evaluation Branch, NCI, Bethesda. […]
Measured inhibition at 10 µM accompanies every entry in the list below.

COMPOUND: COc1ccc(NC(=O)Nc2ccc(-c3ccc(OC)c(OC)c3)nc2C)cc1 [Compound 8n]
inhibition at 10 µM: 21%

COMPOUND: COc1ccc(-c2ccc(NC(=O)Nc3cccc(Cl)c3)c(C)n2)cc1OC [Compound 8j]
inhibition at 10 µM: 16%

COMPOUND: COc1ccc(-c2ccc(NC(=O)Nc3ccc(Cl)c(C(F)(F)F)c3)c(C)n2)cc1 [Compound 8e]
inhibition at 10 µM: 38%

COMPOUND: COc1cccc(NC(=O)Nc2ccc(-c3ccc(OC)c(OC)c3)nc2C)c1 [Compound 8m]
inhibition at 10 µM: 13%

Entry source: paper PMC6100082
